target: human TRPV1 (Homo sapiens, UniProt Q8NER1)
Construct: expressed in transfected cells
Sequence (Q8NER1 whole entry): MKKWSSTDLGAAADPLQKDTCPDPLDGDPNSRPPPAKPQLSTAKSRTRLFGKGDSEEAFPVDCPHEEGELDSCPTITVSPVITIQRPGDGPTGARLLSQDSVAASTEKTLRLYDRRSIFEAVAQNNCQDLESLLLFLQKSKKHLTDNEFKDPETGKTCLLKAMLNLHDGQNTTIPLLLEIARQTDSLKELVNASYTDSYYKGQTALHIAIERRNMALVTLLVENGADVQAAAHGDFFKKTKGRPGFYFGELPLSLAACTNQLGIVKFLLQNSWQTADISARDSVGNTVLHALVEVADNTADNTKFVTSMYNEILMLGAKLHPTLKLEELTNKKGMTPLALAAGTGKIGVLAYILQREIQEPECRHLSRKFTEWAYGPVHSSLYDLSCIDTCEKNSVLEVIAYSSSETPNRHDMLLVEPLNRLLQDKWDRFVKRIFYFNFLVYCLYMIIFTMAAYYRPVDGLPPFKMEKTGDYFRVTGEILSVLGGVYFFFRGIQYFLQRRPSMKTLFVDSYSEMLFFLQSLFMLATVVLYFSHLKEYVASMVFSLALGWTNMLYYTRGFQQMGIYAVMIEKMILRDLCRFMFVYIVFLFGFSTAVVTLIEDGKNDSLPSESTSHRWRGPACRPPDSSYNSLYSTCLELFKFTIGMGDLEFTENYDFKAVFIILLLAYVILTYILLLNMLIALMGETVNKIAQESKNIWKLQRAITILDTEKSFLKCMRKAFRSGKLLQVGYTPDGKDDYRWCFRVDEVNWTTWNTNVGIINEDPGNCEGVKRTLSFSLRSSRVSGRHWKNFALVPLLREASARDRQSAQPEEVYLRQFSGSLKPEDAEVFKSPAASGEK
measurement_protocol: Acid Activation Assay (pH 5.0, FLIPR intracellular Ca2+, recombinant HEK293 cells)
Type: cell-based
experimental_parameters: percentage of maximal pH 5.0-induced response remaining; HEK293 hTRPV1; max concentration 37.5 μM
reported_metric: human TRPV1 H+ (max % remain)

Consider the compound shown here: C[C@]1(CF)C[C@@H](NC(=O)Nc2c(F)ccc3c2C[C@@H](O)C3)c2ccc(Cl)cc2O1 What is its recorded human TRPV1 H+ (max % remain)?
30%

Same question for O=C(Nc1ccc(F)c2c1C[C@H](O)C2)N[C@@H]1CC(CF)(CF)Oc2ccc(F)cc21 please.
5%

Same question for O=C(Nc1ccc(F)c2c1C[C@H](O)C2)N[C@@H]1CCOc2c(OC(F)(F)F)cccc21 please.
4%

Same question for CC1(C)C[C@@H](NC(=O)Nc2ccc(F)c3c2C[C@@H](O)C3)c2cccc(F)c2O1 please.
59%

Same question for COc1ccc(C2CC(NC(=O)Nc3cccc4c3CC(O)C4)c3ccccc3O2)cc1OC (stereo not shown) please.
74%

Same question for CCC1(CC)C[C@@H](NC(=O)Nc2cccc3c2C[C@H](O)C3)c2cccc(F)c2O1 please.
89%

Same question for O=C(Nc1ccc(F)c2c1C[C@@H](O)C2)N[C@@H]1CC(CF)(CF)Oc2cc(Cl)ccc21 please.
36%

Same question for C[C@@]1(C(F)F)C[C@@H](NC(=O)Nc2cccc3c2C[C@H](O)C3)c2ccccc2O1 please.
88%

Same question for CCC1(CC)C[C@@H](NC(=O)Nc2cccc3c2C[C@H](O)C3)c2ccc(OC(F)(F)F)cc2O1 please.
23%

Same question for O=C(Nc1ccc(F)c2c1C[C@@H](O)C2)N[C@@H]1CC(CF)(CF)Oc2cc(OC(F)(F)F)ccc21 please.
36%

Same question for COc1ccc(CC2COc3ccccc3C2NC(=O)Nc2cccc3c2CC(O)C3)cc1OC (stereo not shown) please.
89%

Same question for O=C(Nc1cccc2c1C[C@H](O)C2)N[C@@H]1CC2(CCCC2)Oc2ccccc21 please.
75%

Same question for O=C(Nc1cccc2c1C[C@H](O)C2)N[C@@H]1CCc2cc(F)ccc21 please.
60%

Same question for CC1(C)C[C@@H](NC(=O)Nc2ccc(F)c3c2C[C@@H](O)C3)c2ccc(F)c(Cl)c2O1 please.
43%

Same question for O=C(Nc1cccc2c1CC(O)C2)NC1CC(c2cccc(Cl)c2)Oc2ccccc21 (stereo not shown) please.
59%

Same question for O=C(Nc1cccc2c1C[C@H](O)C2)N[C@@H]1CC2(CCC2)Oc2ccccc21 please.
73%

---

Kindly state human TRPV1 H+ (max % remain) for each of the entries shown.
target: human TRPV1 (Homo sapiens)
Construct: expressed in transfected cells
measurement_protocol: Acid Activation Assay (pH 5.0, FLIPR intracellular Ca2+, recombinant HEK293 cells)
Assay type: cell-based
experimental_parameters: percentage of maximal pH 5.0-induced response remaining; HEK293 hTRPV1; max concentration 37.5 μM

For the record CC1(C)C[C@@H](NC(=O)Nc2cccc3c2C[C@@H](O)C3)c2ccc(F)c(Cl)c2O1 , what value of human TRPV1 H+ (max % remain) is listed for human TRPV1 (Homo sapiens)?
32%

Same question for O=C(Nc1cccc2c1C[C@H](O)C2)N[C@@H]1CCc2c1cccc2C(F)(F)F please.
56%

Same question for O=C(Nc1cccc2c1C[C@H](O)C2)N[C@H]1CC2(CCC2)Oc2ccc(F)cc21 please.
90%

Same question for O=C(Nc1ccc(F)c2c1C[C@H](O)C2)N[C@@H]1CC(CF)(CF)Oc2cc(Cl)ccc21 please.
3%

Same question for O=C(Nc1c(F)ccc2c1C[C@@H](O)C2)N[C@@H]1CC(CF)(CF)Oc2cc(Cl)ccc21 please.
4%

Same question for CC1(C)C[C@@H](NC(=O)Nc2cccc3c2C[C@@H](O)C3)c2ccc(Cl)cc2O1 please.
12%

Same question for CC1(CF)C[C@@H](NC(=O)Nc2cccc3c2C[C@H](O)C3)c2ccc(Cl)cc2O1 (some centres unmarked) please.
72%

Same question for CCC1(CC)C[C@@H](NC(=O)Nc2cccc3c2C[C@H](O)C3)c2cc(F)ccc2O1 please.
67%
